target.or.system: BRD4 protein (Homo sapiens, UniProt O60885)
experimental.details: FRET assay, half maximal inhibitory concentration (IC50)
Assay type: binding
settings: BRD4 protein 50 nM, Biotin-H4KAc4 peptide 12.5 nM; A Further List of Classification
pIC50: −log10 of the molar value.
Entries and their pIC50 values follow.

In [3]: df
Out[3]:
                                   compound                          target_or_system  recorded_measurement
0  Cc1cc(O)nc2ccc(NC(=O)c3cc([N+](=O)[O-])ccc3N3CCCC3)cc12 [S25]  BRD4 protein (Homo sapiens, UniProt O60885)                > 6.70
1  COC[C@@H]1CCCN1Cc1ccc(N2CCCC2)c(C(=O)Nc2ccc3nc(O)cc(C)c3c2)c1 [S85]  BRD4 protein (Homo sapiens, UniProt O60885)                > 6.70
2  CN1CCN(Cc2ccc(N3CCCC3)c(C(=O)Nc3ccc4c(c3)CCC(=O)N4)c2)CC1 [S80]  BRD4 protein (Homo sapiens, UniProt O60885)          5.00 to 6.00
3  Cc1cc(O)nc2ccc(NC(=O)c3cc(S(=O)(=O)N(C)C)ccc3N3CCCC3CC(C)C)cc12 (centres unmarked) [S55]  BRD4 protein (Homo sapiens, UniProt O60885)          6.30 to 6.70

Let us move to another entry and its pIC50.
Reported pIC50 of Cc1cc(O)nc2ccc(NC(=O)c3cc(S(=O)(=O)N(C)C)ccc3N3CCCC3C(C)(C)O)cc12 (centres unmarked) [S57] : 5.00 to 6.00

====

target.or.system: BRD4 protein (Homo sapiens, UniProt O60885)
experimental.details: FRET assay, half maximal inhibitory concentration (IC50)
Type: binding
settings: BRD4 protein 50 nM, Biotin-H4KAc4 peptide 12.5 nM; List of Classification
Overview of recorded IC50 for various molecules

Previously resolved entries follow.
>>> print(df.to_string())
                                   molecule  recorded_measurement
0  CC(=O)N1CCN(Cc2ccc(N3CCCC3)c(C(=O)Nc3ccc4nc(O)cc(C)c4c3)c2)CC1              < 200 nM
1  Cc1cc(O)nc2ccc(NC(=O)c3cc(-c4cnn(C)c4)cnc3N3CCOCC3)cc12              < 200 nM
2  Cc1cc(O)nc2ccc(NC(=O)c3cc(CN4CCOCC4)ccc3N3CCCC3=O)cc12        500 to 1000 nM
3  CN(C)S(=O)(=O)c1ccc(N2CCCC2)c(C(=O)Nc2cc(F)c3c(c2)C(C)(C)CC(=O)N3)c1              < 200 nM

// IC50 lookup, molecule = `COc1cc2nc(O)cc(C)c2cc1NC(=O)c1cc(-c2ccoc2)cnc1N1CCOCC1` , result: 1000 to 10000 nM

response.value for `Cc1cc2nc(O)cc(C)c2cc1NC(=O)c1c(C)ccnc1N1CCOCC1` (field: IC50) = 1000 to 10000 nM

Short answer for Cc1cc(O)nc2ccc(NC(=O)c3cc(S(=O)(=O)N4CCC(N(C)C)C4)ccc3N3CCOCC3)cc12 (stereo not shown) : IC50 was < 200 nM

====

target.or.system: BRD4 protein (Homo sapiens)
experimental.details: FRET assay, half maximal inhibitory concentration (IC50)
Type: binding
settings: BRD4 protein 50 nM, Biotin-H4KAc4 peptide 12.5 nM; A Further List of Classification
pIC50: −log10 of the molar value.
// reported pIC50 for each item listed

In [3]: df
Out[3]:
                                   compound  measurement_name  recorded_measurement
0  Cc1cc(O)nc2ccc(NC(=O)c3cc(CN4CCOCC4)cnc3N3CCC(C)(F)C3)cc12 (stereo not drawn)             pIC50          6.30 to 6.70
1  Cc1cc(O)nc2ccc(NC(=O)c3ccc(N)c([N+](=O)[O-])c3)cc12 [S30, reference compound]             pIC50                < 5.00
2  O=C1CCc2cc(NC(=O)c3cc(S(=O)(=O)N4CCOCC4)ccc3N3CCCC3)ccc2N1             pIC50          5.00 to 6.00
3  CN1CCN(c2ccccc2C(=O)Nc2ccc3c(c2)OCC(=O)N3C)CC1             pIC50                < 5.00
4  Cc1cc(O)nc2ccc(NC(=O)c3cc(CN4CCOCC4)cnc3N3CCC(CO)C3)cc12 (stereo not drawn)             pIC50                < 5.00
5  Cc1cc(O)nc2ccc(NC(=O)c3cc(S(=O)(=O)N(C)C)ccc3N3CCCC3C)cc12 (stereo not drawn)             pIC50          6.00 to 6.30
6  CN1C(=O)CCc2cc(NC(=O)c3cc([N+](=O)[O-])ccc3N3CCOCC3)ccc21             pIC50                < 5.00
7  Cc1cc(O)nc2ccc(NC(=O)c3cc(CN4CCOCC4)cnc3N3CCC(CC(C)C)C3)cc12 (stereo not drawn)             pIC50          5.00 to 6.00
8  O=C(Nc1ccc2[nH]c(=O)cc(O)c2c1)c1cc(S(=O)(=O)N2CCOCC2)ccc1N1CCOCC1             pIC50                > 6.70
9  Cc1cc(O)nc2ccc(NC(=O)c3cc(CN(C)CCO)ccc3N3CCCC3)cc12             pIC50                > 6.70

Lab note: measured pIC50 of Cc1cc(O)nc2ccc(NC(=O)c3cc(S(=O)(=O)N(C)C)ccc3N3CC(C)C(O)CC3C)cc12 (stereo not drawn) was 6.00 to 6.30

Record Cc1cc(O)nc2ccc(NC(=O)c3cc(CN4CCOCC4)cnc3N3CCC(C)C3)cc12 (stereo not drawn) . Reported pIC50: > 6.70

====

# IC50 values compiled below
target.or.system: BRD4 protein (Homo sapiens)
experimental.details: FRET assay, half maximal inhibitory concentration (IC50)
Format: binding
settings: BRD4 protein 50 nM, Biotin-H4KAc4 peptide 12.5 nM; A Further List of Classification
Experimental: The compounds were biologically evaluated by determining the half maximal inhibitory concentration (IC50) by FRET assay. The IC50 is a measure of the effectiveness of a substance in inhibiting a specific biological or biochemical function. […] The reaction was run in a final volume of 25 μl. […] The plates were incubated for one hour prior to reading on an Envision reader (Perkin Elmer) […]

// below: answered compounds
>>> df
                                   compound             target_or_system  measurement_name  recorded_measurement
0  Cc1cc(O)nc2ccc(NC(=O)c3cc(S(=O)(=O)N(C)C)ccc3N3CCC4C3CCCN4C)cc12 (centres unmarked)  BRD4 protein (Homo sapiens)              IC50        500 to 1000 nM
1  Cc1cc(O)nc2ccc(NC(=O)c3cc(N4CCOCC4)ccc3NS(C)(=O)=O)cc12  BRD4 protein (Homo sapiens)              IC50         200 to 500 nM
2  Cc1cc(O)nc2ccc(NC(=O)c3cccc(S(=O)(=O)NCC(N)=O)c3)cc12  BRD4 protein (Homo sapiens)              IC50            > 10000 nM

// IC50 lookup, compound = Cc1cc(O)nc2ccc(NC(=O)c3cc(CN4CCOCC4)cnc3N3CCC(C(N)=O)C3)cc12 (centres unmarked) , result: 500 to 1000 nM

Entry `CN1C(=O)COc2cc(NC(=O)c3cc(S(=O)(=O)N4CCOCC4)ccc3N3CCCC3)ccc21` , IC50 reported as 1000 to 10000 nM

Record Cc1cc(O)nc2ccc(NC(=O)c3cc(CN4CCOCC4)cnc3N3CCOC(CO)C3)cc12 (centres unmarked) , field IC50: > 10000 nM

Entry Cc1cc(O)nc2ccc(NC(=O)c3cc([N+](=O)[O-])cnc3N3CCCCC3C)cc12 (centres unmarked) — recorded IC50 = 500 to 1000 nM

compound `O=C1CCc2cc(NC(=O)c3cc([N+](=O)[O-])ccc3N3CCCC3)ccc2N1` , IC50 observed: 1000 to 10000 nM

Per the record, COC1CCN(c2ccc(S(=O)(=O)N(C)C)cc2C(=O)Nc2ccc3nc(O)cc(C)c3c2)C1 (centres unmarked) has IC50 of 500 to 1000 nM

`CCS(=O)(=O)Nc1ccc(N2CCN(C)CC2)c(C(=O)Nc2ccc3nc(O)cc(C)c3c2)c1` yielded IC50 of 1000 to 10000 nM

Per the record, Cc1cc(O)nc2ccc(NC(=O)c3cc(CN4CCOCC4)cnc3N3CCOC(CN(C)C)C3)cc12 (centres unmarked) has IC50 of > 10000 nM

// field: IC50; key: `Cc1cc(O)nc2ccc(NC(=O)c3cc(S(=O)(=O)N4CCCCC4)ccc3N3CCOCC3)cc12` ; value = < 200 nM

Reported IC50 for `NS(=O)(=O)c1ccc(N2CCOCC2)c(C(=O)Nc2ccc3[nH]c(=O)cc(C(F)(F)F)c3c2)c1` was 1000 to 10000 nM

Data provenance is patent US10752640B2.
